The reported numbers originate from patent US12281162.

Parameter Top: see the listing below.
# Target desc: T1, human G-protein-coupled receptor family C group 5 member D (GPRC5D) (human, UniProt Q9NZD1 1-345)
# T1 construct: whole, on cells; also called human GPRC5D protein
# T1 sequence (Q9NZD1 whole entry): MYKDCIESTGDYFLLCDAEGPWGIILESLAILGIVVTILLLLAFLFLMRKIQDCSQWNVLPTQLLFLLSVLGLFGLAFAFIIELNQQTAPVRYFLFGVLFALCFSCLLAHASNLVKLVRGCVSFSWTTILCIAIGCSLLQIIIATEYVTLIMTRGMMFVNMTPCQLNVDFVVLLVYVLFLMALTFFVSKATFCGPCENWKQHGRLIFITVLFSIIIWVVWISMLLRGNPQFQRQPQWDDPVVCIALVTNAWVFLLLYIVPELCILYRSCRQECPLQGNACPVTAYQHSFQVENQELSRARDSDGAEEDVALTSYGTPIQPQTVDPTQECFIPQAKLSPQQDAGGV
# Test details: FACS, CHO-K1/human GPRC5D, chimeric antibody
Give the value as a plain number.

# count of solved cases: 2
38A10E9A11 (chimeric) (antibody, V domains shown, also called 38A9E10A11) VH: QVQLQQSGAELARPGASVKMSCKASGYTFTTYTMHWVKQRPGQGLEWIGYINPSSGYTNYNQKFKDKATLTAGKSSSTAYMQLSSLTSEDSAVYYCASLRSRGYFDYWGRGTTLTVSS VL: DIVMTQSQKFLSTSVGDRVSITCKASQNVGTAVAWYQQKPGQSPKLLIYSASNRYTGVPDRFTGSGSGTDFTLTISNMQSEDLAGYFCQQYSSYPYTFGGGTKLEIK	387000
29B2C10 (chimeric) (antibody, V domains shown) VH: EVQLQQSGPELVKPGASMKLSCKASGYSFTGYTMHWVKQSHGENLEWIGLINPYNGGTNYNQKFKGKATLTVDKSSSTAYMELLSLTSEDSAVYYCSRWGLRRAMDYWGQGTSVTVSS VL: DIVMTQSQKFMSTSVGDRVSVTCKASQNVGSNVAWYQQKPGQSPKALIYSASYRYSGVPDRFTGNGSGTDFTLTISNVQSEDLAEYFCQQYYNSPWTFGGGTKLEIK	430000

Okay, next one:
Inquiry: Determine its reported Top: 21C3C11B3 (chimeric) (antibody, V domains shown) VH: QVQLQQSGAELVRPGTSVKVSCKASGYAFINYLIEWIKQRPGQGLEWIGMINPGSGGTNYNEKFKDKATLTADKSSSTAYMQLSSLTSDDSAVYFCARNWDVWGQGTTLTVSS VL: DVVMTQSPLSLPVSLGDQASVSCRSSQSLVHSTGNTYLHWYLQKPGQSPKLLIYKVSNRFSGVPDRFSGSGSGTDFTLKISRVEAEDLGVYFCSQSTHVPWTFGGGTKLEIK
Reply text: 404000
